system under test: Vascular endothelial growth factor receptor (Homo sapiens, UniProt P17948+P35916+P35968)
assay name: Inhibition of VEGF-stimulated human umbilical vein endothelial cell proliferation
Assay type: functional, cell-based
observable: IC50 (nM)

P: CONC(=O)c1cc(Nc2ncnn3cc(-c4nnc(C(F)(F)F)o4)c(C(C)C)c23)c(F)cc1F
Q: CONC(=O)c1cc(Nc2ncnn3cc(NC(=O)OCCCN4CCCCC4)c(C(C)C)c23)c(F)cc1F
R: CONC(=O)c1cc(Nc2ncnn3cc(-c4nnc(N(C)C)o4)c(C(C)C)c23)c(F)cc1F
S: CCc1nnc(-c2cn3ncnc(Nc4cc(C(=O)NOC)c(F)cc4F)c3c2C(C)C)o1
Ask | Put the listed items above in order, lowest IC50 first. A ranking is expressed here by listing the labels in the requested order.
Reply | S, R, P, Q
(S: 1.8 nM, R: 6.7 nM, P: 35 nM, Q: 62 nM)

###

system under test: Cyclin-dependent kinase 2 (Homo sapiens, UniProt P24941)
observable: IC50

Ask | Give the value of IC50 reported for the following: `CONC(=O)c1cc(Nc2ncnn3cc(NC(=O)OCCCS(C)(=O)=O)c(C(C)C)c23)c(F)cc1F`
Reply | > 50 µM

###

assay name: Area under curve determined after administration of 10 mg/kg dose po in mouse
Assay type: ADME, organism-based
Design: dose 10 mg/kg, route oral
protocol conditions: in vivo
observable: AUC (µM·h)
Give the number; µM·h is assumed, so skip it.

Ask | Give the value of AUC reported for the following: `CONC(=O)c1cc(Nc2ncnn3cc(-c4nnc(C(F)(F)S(C)(=O)=O)o4)c(C(C)C)c23)c(F)cc1F`
Reply | 155

###

As shown below, each of these compounds has a reported pIC50 value.
system under test: Protein kinase C alpha type (Homo sapiens)
assay name: Inhibition of human protein kinase C alpha
pIC50: −log10 of the molar value.

Worked set:
INSERT INTO results (structure, observable, reported_result) VALUES
  ('CONC(=O)c1cc(Nc2ncnn3cc(-c4nnc(C)o4)c(C(C)C)c23)c(F)cc1F', 'pIC50', '< 4.30'),
  ('CONC(=O)c1cc(Nc2ncnn3cc(-c4nnc(C(F)(F)S(C)(=O)=O)o4)c(C(C)C)c23)c(F)cc1F', 'pIC50', '< 4.30');

API: the following record is the query input.
Ask | Give the value of pIC50 reported for the following: `CONC(=O)c1cc(Nc2ncnn3cc(NC(=O)OCCCS(C)(=O)=O)c(C(C)C)c23)c(F)cc1F`
Reply | < 4.30

###

assay name: Half-life determined after administration of 5 mg/kg dose iv in mouse
Assay type: ADME, organism-based
Design: dose 5 mg/kg, route intravenous
protocol conditions: in vivo
observable: half-life (h)
Give the number; h is assumed, so skip it.

Ask | Give the value of half-life reported for the following: `CONC(=O)c1cc(Nc2ncnn3cc(-c4nnc(C(F)(F)S(C)(=O)=O)o4)c(C(C)C)c23)c(F)cc1F`
Reply | 2.5

###

system under test: Cytochrome P450 2C9 (Homo sapiens, UniProt P11712)
Sequence (P11712 whole entry): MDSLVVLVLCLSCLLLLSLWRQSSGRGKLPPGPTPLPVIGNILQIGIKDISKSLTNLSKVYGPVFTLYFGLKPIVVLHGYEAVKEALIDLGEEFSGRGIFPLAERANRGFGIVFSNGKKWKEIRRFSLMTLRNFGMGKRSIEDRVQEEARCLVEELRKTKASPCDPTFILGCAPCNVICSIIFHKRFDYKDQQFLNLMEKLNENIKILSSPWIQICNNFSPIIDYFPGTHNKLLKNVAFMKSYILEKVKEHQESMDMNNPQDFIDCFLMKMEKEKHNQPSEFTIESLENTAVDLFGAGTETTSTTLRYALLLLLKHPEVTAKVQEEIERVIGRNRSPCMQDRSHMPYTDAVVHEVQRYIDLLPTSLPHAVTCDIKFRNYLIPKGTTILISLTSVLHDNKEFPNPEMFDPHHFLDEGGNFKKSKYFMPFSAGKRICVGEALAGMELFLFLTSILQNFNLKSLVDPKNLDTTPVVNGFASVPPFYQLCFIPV
observable: pIC50
pIC50 here: minus log base 10 of the concentration, concentration in moles per litre.

Ask | Give the value of pIC50 reported for the following: `CONC(=O)c1cc(Nc2ncnn3cc(-c4ncc(C)o4)c(C(C)C)c23)c(F)cc1F`
Reply | 5.44

These entries and their values trace back to ChEMBL document CHEMBL1144449.
